Assayed Target: EmrE (Escherichia coli)
Sequence (P23895 whole entry): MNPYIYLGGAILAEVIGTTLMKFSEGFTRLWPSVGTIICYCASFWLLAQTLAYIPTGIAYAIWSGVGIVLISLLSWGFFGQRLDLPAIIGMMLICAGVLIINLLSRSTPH
Protocol Description: ITC (pH […] ºC); NMR pH titration; ZZ-exchange NMR
Recorded Metric: Kd

| Compound Smiles | Kd |
| --- | --- |
| c1ccc(C(c2ccccc2)(c2ccccc2)c2ccc([P+](c3ccccc3)(c3ccccc3)c3ccccc3)cc2)cc1 | 9.3 µM |

Turning now to a further record.
Sample c1ccc([P+](c2ccccc2)(c2ccccc2)c2ccc([P+](c3ccccc3)(c3ccccc3)c3ccccc3)cc2)cc1 ; Kd observed: 8.1 µM
